Taken from the supplement of paper PMC4466140.

Assignment: determine reported SPOT peptide array binding signal intensity for the given binders.
molecular target: ScBzz1-D2; assay: SPOT peptide array binding signal intensity (averaged, normalized) (arbitrary units (background-subtracted, floor 0; scale differs between SH3 domains)); higher = stronger binding of the SH3 domain to the peptide
No unit in the answer, please; the number alone is enough.

Record request: SPOT peptide array binding signal intensity value, item LLLLFVPDSPYDPAI
7

For the binder RRSKSLPTTPGIRSG , what SPOT peptide array binding signal intensity is on record?
27

For LKHGWKPLRPIKLIS , what is its reported SPOT peptide array binding signal intensity?
20

Suppose we examine the binder RSLRKRPTSPSISGS ; what SPOT peptide array binding signal intensity value has been reported?
28

If you can, please state the reported SPOT peptide array binding signal intensity value of DFTLPPPPPPPGLDE .
1

Query (binder): VFQFQMPTTPISTKM ; field requested: SPOT peptide array binding signal intensity
25

// SPOT peptide array binding signal intensity lookup, key: SSSSTPPTLPPRRIE
2

Reported SPOT peptide array binding signal intensity for VNIPSPSSSPPPIPK : what is it?
6

Which SPOT peptide array binding signal intensity value is on record for PSRRAPLQLPQLVNK ?
10

Need SPOT peptide array binding signal intensity of KRRAPPPVPKKPSSR , thanks.
82.5

Returns the measured SPOT peptide array binding signal intensity for the input binder. Input: QDKEGIPPDQQRLIF
26

Given the entry QTMRQAPKRPDADVA , report its measured SPOT peptide array binding signal intensity.
27

Can you share its SPOT peptide array binding signal intensity? I mean this binder: ATKSASPTLPTRRSR
52
